Molecular target: T1, his-tagged human CDH6 extracellular region protein (hCDH6 ECD-his) (human, UniProt P55285 19-615)
T1 construct: also called Human CDH6-his; hCDH6-his; not shown: his tag
T1 sequence: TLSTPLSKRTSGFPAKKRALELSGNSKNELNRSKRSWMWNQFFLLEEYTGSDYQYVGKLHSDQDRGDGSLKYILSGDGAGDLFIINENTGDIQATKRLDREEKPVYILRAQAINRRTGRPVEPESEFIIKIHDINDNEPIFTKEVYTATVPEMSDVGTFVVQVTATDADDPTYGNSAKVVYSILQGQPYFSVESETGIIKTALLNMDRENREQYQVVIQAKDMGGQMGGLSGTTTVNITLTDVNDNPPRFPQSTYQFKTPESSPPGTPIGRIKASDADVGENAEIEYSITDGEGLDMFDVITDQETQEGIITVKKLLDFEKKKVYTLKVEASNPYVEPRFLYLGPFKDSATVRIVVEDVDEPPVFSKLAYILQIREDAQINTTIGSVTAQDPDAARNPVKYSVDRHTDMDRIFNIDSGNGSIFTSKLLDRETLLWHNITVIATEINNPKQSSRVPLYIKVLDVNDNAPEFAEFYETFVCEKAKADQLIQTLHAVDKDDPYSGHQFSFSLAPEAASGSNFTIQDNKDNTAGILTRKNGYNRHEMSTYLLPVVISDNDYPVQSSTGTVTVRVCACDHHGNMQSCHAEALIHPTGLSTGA
Assay: ELISA, coated antigen
Method: Human CDH6 protein (hCDH6 ECD-his, conventionally synthesized), monkey CDH6 protein (cynoCDH6 ECD-his, conventionally synthesized; the cynoCDH6 ECD sequence was derived from Uniprot #A0A2K5TW62 (19-615)), and murine CDH6 protein (mCDH6 ECD-his, conventionally synthesized; the mCDH6 ECD sequence was derived from Uniprot #P97326 (19-615)) were diluted with PBS to a final concentration of 1 μg/mL, and added to a 96-well ELISA plate at 100 μL/well. The plate was incubated at 4° C. overnight. […]
REPORTED_PROPERTY: pEC50
Please express pEC50 as -log10 of the molar concentration.

Challenge: # return recorded pEC50 for input hCDH6-6-H1L2 (antibody, V domains shown, Humanized) VH: EVQLVQSGAEVKKPGASVKVSCKASGYTFTDYYMAWVRQAPGQGLEWMGYIFPNSGGTDYSQKFKGRVTMTVDKSTSTVYMELSSLRSEDTAVYYCARELGADYGDYYAMDHWGQGTTVTVSS VL: DIQMTQSPSSLSASVGDRVTITCRASENIDSYLAWYQQKPGKSPKLLVYSATLLADGVPSRFSGSGSGTDYTLTISSLQPEDFATYYCQHYYRTPPTFGQGTKLEIK
Response given: 10.55

Challenge: # return recorded pEC50 for input hCDH6-6-H2L4 (antibody, V domains shown, Humanized) VH: EVQLVQSGAEVKKPGASVKVSCKASGYTFTDYYMAWVRQAPGQGLEWMGYIFPNSGGTDYSQKFKGRVTLTVDKSTSTVYMELSSLRSEDTAVYYCARELGADYGDYYAMDHWGQGTTVTVSS VL: DIQMTQSPSSLSASVGDRVTITCRASENIDSYLAWYQQKPGKSPKLLVYSATLLADGVPSRFSGSGSGTDYTLTISSLQPEDFARYYCQHYYRTPPTFGQGTKLEIK
Response given: 10.54

Could you now consider this next binder?
Challenge: # return recorded pEC50 for input hCDH6-6-H1L1 (antibody, V domains shown, Humanized) VH: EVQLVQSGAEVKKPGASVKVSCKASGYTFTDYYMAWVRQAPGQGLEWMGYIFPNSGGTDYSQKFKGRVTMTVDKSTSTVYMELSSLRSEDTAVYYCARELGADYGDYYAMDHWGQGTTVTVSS VL: DIQMTQSPSSLSASVGDRVTITCRASENIDSYLAWYQQKPGKSPKLLLYSATLLADGVPSRFSGSGSGTDYTLTISSLQPEDFATYYCQHYYRTPPTFGQGTKLEIK
Response given: 10.43
